System: Yap1 mRNA
Test: Dose-dependent inhibition of human Yap1 in A-431 cells (Example 8, 10,000 cells per well, RTS4814)
Type: cell-based
Conditions: 125.0 nM; A-431 cells, 10,000 cells per well, free uptake, approximately 48 hours, RTS4814
Strand notation (5' to 3'): a small letter for the sugar, then the base; units joined by * are phosphorothioate-linked, units joined directly phosphodiester-linked; [ ] holds rarer units or linkages, { } end groups; capitals alone tell only the bases. k = constrained ethyl (cEt); [5mC] = 5-methylcytosine; d = 2'-deoxy (DNA)
For each record, write down the corresponding Yap1 mRNA, % UTC.
Answers are plain numbers, in % UTC.

Observe how each entry below is paired with its result.
> print(dat)
                                  substance  readout.value
1  1075689 (k[5mC]*kA*kA*d[5mC]*dT*dA*dT*dA*d[5mC]*dA*dA*dG*dG*k[5mC]*kA*kA; antisense) [compound 1075689]             59
2  1076288 (k[5mC]*kT*kT*dA*dT*dT*dT*dA*dG*d[5mC]*dA*dT*dA*kG*kT*kG; antisense) [compound 1076288]              7

Okay, here is my list. What is Yap1 mRNA, % UTC for each of these?
1. 1074251 (antisense kT*k[5mC]*kT*dG*dA*dT*d[5mC]*dG*dA*dT*dG*dT*dG*kA*kT*kT) [compound 1074251]
2. 1076527 (kG*k[5mC]*kA*d[5mC]*dA*dA*d[5mC]*d[5mC]*dT*dT*dA*d[5mC]*dA*kT*kT*kT; antisense) [compound 1076527]

**A:**
[33, 41]

Okay, here is my list. What is Yap1 mRNA, % UTC for each of these?
1. 1076015 (kA*kT*kT*dT*dA*dG*dT*dT*dG*dG*dT*dT*dG*kT*kT*kA; antisense) [compound 1076015]
2. 1074565 (DNA kA*k[5mC]*kT*dG*dA*dA*dT*dT*d[5mC]*d[5mC]*dA*dA*dT*k[5mC]*kG*kA; antisense) [compound 1074565]

**A:**
1. 37
2. 20
